Listing of entries alongside the reported absorbance at 492 nm.
System Under Test: T1, mouse VEGF (Peprotech) (mouse, UniProt Q00731-2 27-190, limits assumed)
T1 construct: also called Mouse VEGF-A
T1 sequence (looked up): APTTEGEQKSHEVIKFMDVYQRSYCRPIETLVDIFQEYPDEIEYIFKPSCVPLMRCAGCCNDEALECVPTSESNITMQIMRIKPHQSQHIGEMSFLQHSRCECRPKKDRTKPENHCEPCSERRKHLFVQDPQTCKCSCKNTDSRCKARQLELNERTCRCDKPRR
Experimental Details: ELISA; antigen coated 1 µg/ml; scFv 10 µg/mL; 9E10-peroxidase
// response body must contain only the number

Please review the following examples before continuing.
scFv L3H5 antibody fragment (scFv, soluble, from E. coli) scFv: QQVQLVQSGAEVKKPGESLKISCKGSGYSFTSYWIGWVRQMPGKGLEWMGIIYPGDSDTRYSPSFQGQVTISADKSISTAYLQWSSLKASDTAMYYCARLVHRYRAIWGQGTMVTVSSAPQAKSSGSGSESKVDQAVVTQEPSLTVSPGGTVTLTCASSTGAVTSGNYPNWFQQRPGQPPRALIYSTSNKHSWTPARFSGSLLGGKAALTLSGAQPEDEAEYYCRLSYDLARPVFGGGTKLTVLG :: 1.39
scFv L3H7 antibody fragment (scFv, soluble, from E. coli) scFv: QQVQLVQSGAEVKKPGESLKISCKGSGYSFTSYWIGWVRQMPGKGLEWMGIIYPGDSDTRYSPSFQGQVTISADKSISTAYLQWSSLKASDTAMYYCARPYATDTRIWGQGTMVTVSSAPQAKSSGSGSESKVDQAVVTQEPSLTVSPGGTVTLTCASSTGAVTSGNYPNWFQQRPGQPPRALIYSTSNKHSWTPARFSGSLLGGKAALTLSGAQPEDEAEYYCRLSYDLARPVFGGGTKLTVLG :: 1.12
soluble scFv 2H1 antibody fragment (scFv, from another filing) scFv: QQVQLVQSGAEVKKPGESLKISCKGSGYSFTSYWIGWVRQMPGKGLEWMGIIYPGDSDTRYSPSFQGQVTISADKSISTAYLQWSSLKASDTAMYYCARLVVRDTEIWGQGTMVTVSSAPQAKSSGSGSESKVDQAVVTQEPSLTVSPGGTVTLTCASSIGAVTSGNYPNWFQQRPGQPPRALIYSTSNKHSWTPARFSGSLLGGKAALTLSGAQPEDEAEYYCLLSYSGARPVFGGGTKLTVLGAAAGSEQKLISEEDLNSHHHHHH :: 0.09

Now for the binder whose absorbance at 492 nm we want.
[in] Query: absorbance at 492 nm; subject: scFv L3H6 antibody fragment (scFv, soluble, from E. coli) scFv: QQVQLVQSGAEVKKPGESLKISCKGSGYSFTSYWIGWVRQMPGKGLEWMGIIYPGDSDTRYSPSFQGQVTISADKSISTAYLQWSSLKASDTAMYYCARQGTHNRKIWGQGTMVTVSSAPQAKSSGSGSESKVDQAVVTQEPSLTVSPGGTVTLTCASSTGAVTSGNYPNWFQQRPGQPPRALIYSTSNKHSWTPARFSGSLLGGKAALTLSGAQPEDEAEYYCRLSYDLARPVFGGGTKLTVLG
[out] 1.43
